Reference source for all entries: patent US20100324067A1

Test system: Mycobacterium tuberculosis H37Rv (ATCC 27294)
Experiment: Microplate Alamar Blue Assay (MABA) in BACTEC 12B medium (TAACF screen)
Format: cell-based
Conditions: MABA, H37Rv, read-out: IC50
IC50 values, listed per item

>  <compound>
Cc1cc(=O)oc2c3c(c4c(c12)OC(C)(C)C=C4)OC(C)CC3=O (stereo not drawn)

>  <IC50>
39.2 µg/mL

$$$$
>  <compound>
CCOC1c2c3c(c4oc(=O)cc(CC)c4c2OCC1C)C(=O)CC(C)O3 (stereo not drawn)

>  <IC50>
10 µg/mL

$$$$

Could you now look at the following compound, please?
[Q] Name the recorded IC50 of the item O=c1oc2cc(O)cc(O)c2c2c1CCC2 [Example 6-26, 3,4-cyclopentyl-5,7-dihydroxy-coumarin] in your answer.
[A] 9.97 µg/mL
